Values were extracted from patent US20260232767A1.

# Assay Remarks: Plasma concentrations (PK), Example 1
# Type: in vivo, human
# Conditions Used: human, plasma, oral, 50 mg, 50 mg QD; Week 12; Trough; read-out: Plasma concentration, Mean
# Procedure: For QD dosing, peak concentration was defined as any PK sample taken between 0.25 to <6 hours after the last morning dose and trough concentration was at least 20 hours after the last morning dose. For BID dosing, peak concentration was defined as any PK sample taken between 0.25 to <4 hours after the last dose and trough concentration was at least 8 hours after the last dose.
Readout Kind: level at 2016 h (ng/mL)

compound="CC(=O)NCCCC[C@@H]1NC(=O)[C@H](Cc2c[nH]c3c(C)cccc23)NC(=O)[C@H]([C@@H](C)O)NC(=O)[C@H](CC(N)=O)NC(=O)[C@@H](NC(C)=O)C(C)(C)SSC(C)(C)[C@@H](C(=O)N[C@@H](Cc2ccc(OCCN)cc2)C(=O)N[C@@H](Cc2ccc3ccccc3c2)C(=O)NC2(C(=O)N[C@@H](CCC(=O)O)C(=O)N[C@@H](CC(N)=O)C(=O)N[C@@H](Cc3cccnc3)C(=O)N(C)CC(N)=O)CCOCC2)NC1=O [IL-23 receptor antagonist peptide]" recorded_number=0.085

---

# Assay Remarks: Plasma concentrations (PK), Example 1
# Format: in vivo, human
# Conditions Used: human, plasma, oral, 25 mg, weight >90 kg, 25 mg QD, Week 12, Peak; read-out: Plasma concentration, Geometric Mean
Readout Kind: level at 2016 h (ng/mL)

compound="CC(=O)NCCCC[C@@H]1NC(=O)[C@H](Cc2c[nH]c3c(C)cccc23)NC(=O)[C@H]([C@@H](C)O)NC(=O)[C@H](CC(N)=O)NC(=O)[C@@H](NC(C)=O)C(C)(C)SSC(C)(C)[C@@H](C(=O)N[C@@H](Cc2ccc(OCCN)cc2)C(=O)N[C@@H](Cc2ccc3ccccc3c2)C(=O)NC2(C(=O)N[C@@H](CCC(=O)O)C(=O)N[C@@H](CC(N)=O)C(=O)N[C@@H](Cc3cccnc3)C(=O)N(C)CC(N)=O)CCOCC2)NC1=O [IL-23 receptor antagonist peptide]" display_unit=ng/mL recorded_number=0.236

---

# Assay Remarks: Plasma concentrations (PK), Example 1
# Type: in vivo, human
# Conditions Used: human, plasma, oral, 25 mg, 25 mg BID; Week 4; Peak; read-out: Plasma concentration, Geometric Mean
Readout Kind: level at 672 h (ng/mL)

compound="CC(=O)NCCCC[C@@H]1NC(=O)[C@H](Cc2c[nH]c3c(C)cccc23)NC(=O)[C@H]([C@@H](C)O)NC(=O)[C@H](CC(N)=O)NC(=O)[C@@H](NC(C)=O)C(C)(C)SSC(C)(C)[C@@H](C(=O)N[C@@H](Cc2ccc(OCCN)cc2)C(=O)N[C@@H](Cc2ccc3ccccc3c2)C(=O)NC2(C(=O)N[C@@H](CCC(=O)O)C(=O)N[C@@H](CC(N)=O)C(=O)N[C@@H](Cc3cccnc3)C(=O)N(C)CC(N)=O)CCOCC2)NC1=O [IL-23 receptor antagonist peptide]" readout_kind="level at 672 h" display_unit=ng/mL recorded_number=0.539

---

# Assay Remarks: Plasma concentrations (PK), Example 1
# Assay type: in vivo, human
# Conditions Used: human, plasma, oral, 25 mg, 25 mg BID; Week 8; Peak; read-out: Plasma concentration, Geometric Mean
Readout Kind: level at 1344 h (ng/mL)

molecule="CC(=O)NCCCC[C@@H]1NC(=O)[C@H](Cc2c[nH]c3c(C)cccc23)NC(=O)[C@H]([C@@H](C)O)NC(=O)[C@H](CC(N)=O)NC(=O)[C@@H](NC(C)=O)C(C)(C)SSC(C)(C)[C@@H](C(=O)N[C@@H](Cc2ccc(OCCN)cc2)C(=O)N[C@@H](Cc2ccc3ccccc3c2)C(=O)NC2(C(=O)N[C@@H](CCC(=O)O)C(=O)N[C@@H](CC(N)=O)C(=O)N[C@@H](Cc3cccnc3)C(=O)N(C)CC(N)=O)CCOCC2)NC1=O [IL-23 receptor antagonist peptide]" display_unit=ng/mL recorded_number=0.483
